- tgt: TCP20 (UniProt Q9LSD5 1-314)
- Sequence (Q9LSD5 whole entry): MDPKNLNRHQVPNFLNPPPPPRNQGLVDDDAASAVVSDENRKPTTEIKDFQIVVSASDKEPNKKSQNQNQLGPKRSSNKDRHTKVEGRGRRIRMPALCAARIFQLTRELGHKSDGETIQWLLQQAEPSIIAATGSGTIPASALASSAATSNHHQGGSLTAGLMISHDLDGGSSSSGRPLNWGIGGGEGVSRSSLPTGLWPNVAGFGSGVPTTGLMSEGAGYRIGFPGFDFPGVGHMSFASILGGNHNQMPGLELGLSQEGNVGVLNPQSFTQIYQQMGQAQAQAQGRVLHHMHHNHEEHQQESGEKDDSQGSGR
- test name: EMSA; 15 mM HEPES-KOH pH 7.5, 7.5 mM KCl, 0.5 mM EDTA, 5% glycerol, 2 mM DTT, 1 ug/uL BSA, 0.05 ug/uL poly(dI-dC), 2 fmol/uL probe, ~1 pmol His-TCP20 in 20 uL, room temperature 30 min
- test parameters: protein: recombinant; tags: 6xHis (pET41a-6xHis); chain copies: 2; label: 5' biotin
measurement name: binding result

// below: answered binders
1) proGH3.3 probe 2 (dsDNA) DNA 1: ATGTCTGCCCAAAACTAGCCAAAGATTACGTGACCGCGGTCCCTCTTGTCC DNA 2: GGACAAGAGGGACCGCGGTCACGTAATCTTTGGCTAGTTTTGGGCAGACAT; binds
2) proGH3.3 probe 4M (dsDNA) DNA 1: CTATATATTTTTAATATTTAAATAAAATTAAATCAGTTTGTGATTTCAGA DNA 2: TCTGAAATCACAAACTGATTTAATTTTATTTAAATATTAAAAATATATAG; no binding
3) proGH3.3 probe 1M (dsDNA) DNA 1: TCTAACGATAACAAACCAAGAAAAATTTTATGTCGACGTGGAATTTGGCT DNA 2: AGCCAAATTCCACGTCGACATAAAATTTTTCTTGGTTTGTTATCGTTAGA; no binding
4) proGH3.3 probe 1 (dsDNA) DNA 1: TCTAACGATAACAAACCGAGCCCACTTTTATGTCGACGTGGAATTTGGCT DNA 2: AGCCAAATTCCACGTCGACATAAAAGTGGGCTCGGTTTGTTATCGTTAGA; binds
5) proGH3.3 probe 3M (dsDNA) DNA 1: GACATATCAATAAAAAATGTCTGCCCAAAACTAGCCAAAGATTACGTGACC DNA 2: GGTCACGTAATCTTTGGCTAGTTTTGGGCAGACATTTTTTATTGATATGTC; no binding

Here is the next item to consider.
Kindly indicate its recorded binding result. Item: proGH3.3 probe 2M (dsDNA) DNA 1: ATGTCTGCCCAAAACTAGCCAAAGATTACGTGACCGCAATAAATATTGTCC DNA 2: GGACAATATTTATTGCGGTCACGTAATCTTTGGCTAGTTTTGGGCAGACAT
no binding

Just for reference, paper PMC8840716 is where these values come from.
